Data origin: PubChem BioAssay (NCATS)

Molecular target: Voltage-gated inwardly rectifying potassium channel KCNH2 (Homo sapiens)
Experiment: qHTS Assay for Small Molecule Inhibitors of the Human hERG Channel Activity (AID 588834);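 also: lower thallium flux fluorescence means stronger hERG block; nearly all actives have a fitted effect of over 50% in size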; also: potency is read from the fitted curve at half-maximal effect
Details: U2OS BacMam hERG, FluxOR thallium flux fluorescence; series mostly up to 46.1 µM
Procedure: NIH Chemical Genomics Center [NCGC] National Institutes of Environmental Health Sciences [NIEHS] National Toxicology Program [NTP] We have developed a 1536-well cell-based assay for quantitative high throughput screening (qHTS) to determine in vitro hERG channel blockage as a measure of cardio toxicity with small molecules. […] 13. Read fluorescence Intensity on FDSS for 10 Sec with 1 sec interval […] 15. Read fluorescence Intensity on FDSS for 2 min with 1 sec interval […]
Results filed as inconclusive are left out. The source made the active and inactive calls. Calls follow the shape of the dose curve; as a rule, active = well fitted inhibition curve with a large enough effect; inconclusive = small, poorly fitted or top-dose-only effect; inactive = flat fitted curve, though single readings scatter.
readout_name: Potency

C[C@@]1(C2CCCC2)Cc2cc(OCC(=O)O)c(Cl)c(Cl)c2C1=O    inactive
C=CCN1CCc2c(cc(O)c(O)c2Cl)C(c2ccccc2)C1 (centres undefined)    7.94 µM (active)
NC(=O)c1ccccc1    inactive
COc1ccccc1N1CCN(CCCNc2c(C)c(=O)n(C)c(=O)n2C)CC1    inactive
N[C@@H](Cc1ccc(O)c(I)c1)C(=O)O    inactive

Returns the measured Potency for the input compound. Input: `Nc1ccc(-c2nc3ccc(-c4nc5ccc(N)cc5[nH]4)cc3[nH]2)cc1` inactive

Given the compound `N#Cc1cc2nc(O)c(O)nc2cc1[N+](=O)[O-]` , what is its reported Potency? inactive

# query: Potency of entry `O=C1Cc2c([nH]c3ccc(Br)cc23)-c2ccccc2N1` inactive

Look up Potency: COc1cc(C(O)C(=O)O)ccc1O (centres undefined) inactive
